Where do the numbers come from? From the supplement of paper PMC4466140.

molecular target: CaRvs167; assay: SPOT peptide array binding signal intensity (averaged, normalized) (arbitrary units (background-subtracted, floor 0; scale differs between SH3 domains)); higher = stronger binding of the SH3 domain to the peptide
OBSERVED_PROPERTY: SPOT peptide array binding signal intensity

Solved entries:
AAAPKHAPPPVPNET :: ≤ 0
SPLGAPPPPPHKDHL :: 3
NSVPIMPTLPPRPYI :: 423

Would you kindly look at the next entry?
// Input: "DLPLPDLPPEPPTEL" . Output its SPOT peptide array binding signal intensity only.
0.333
